System: Haemophilus influenzae
test protocol: Compound was evaluated for inhibitory activity against C.L Haemophilus influenzae ampicillin sensitive
Type: functional
The following molecules are listed with their measured MIC values.
value kind: MIC (µM)

>>> measured_result("N[C@@H](C(=O)N[C@@H]1C(=O)N2C(C(=O)O)=C(C(F)(F)F)CC[C@H]12)c1cccc(F)c1")
2
>>> measured_result("N[C@@H](C(=O)N[C@@H]1C(=O)N2C(C(=O)O)=C(C(F)(F)F)CC[C@H]12)c1ccc(Cl)c(Cl)c1")
2
>>> measured_result("N[C@@H](C(=O)N[C@@H]1C(=O)N2C(C(=O)O)=C(C(F)(F)F)CC[C@H]12)c1ccc(O)cc1")
0.5

---

# MIC values compiled below
Test system: Citrobacter
test protocol: Compound was evaluated for inhibitory activity against CF17 Citrobacter
Type: functional
value kind: MIC (µM)

>>> measured_result("N[C@@H](C(=O)N[C@@H]1C(=O)N2C(C(=O)O)=C(C(F)(F)F)CC[C@H]12)c1cccc(Br)c1")
32
>>> measured_result("N[C@@H](C(=O)N[C@@H]1C(=O)N2C(C(=O)O)=C(C(F)(F)F)CC[C@H]12)c1cccc(F)c1")
16
>>> measured_result("N[C@@H](C(=O)N[C@@H]1C(=O)N2C(C(=O)O)=C(C(F)(F)F)CC[C@H]12)c1ccc(Cl)c(Cl)c1")
128
>>> measured_result("CS(=O)(=O)Nc1cccc([C@@H](N)C(=O)N[C@@H]2C(=O)N3C(C(=O)O)=C(C(F)(F)F)CC[C@H]23)c1")
16

---

Test system: Klebsiella pneumoniae
test protocol: Compound was evaluated for inhibitory activity against X26 Klebsiella pneumoniae
Format: functional
value kind: MIC (µM)

>>> measured_result("Nc1ccc([C@@H](N)C(=O)N[C@@H]2C(=O)N3C(C(=O)O)=C(C(F)(F)F)CC[C@H]23)cc1")
0.5
>>> measured_result("N[C@@H](C(=O)N[C@@H]1C(=O)N2C(C(=O)O)=C(C(F)(F)F)CC[C@H]12)c1ccc(Cl)c(Cl)c1")
1
>>> measured_result("N[C@@H](C(=O)N[C@@H]1C(=O)N2C(C(=O)O)=C(Cl)CS[C@H]12)c1ccccc1 [CEFACLOR ANHYDROUS]")
0.25
>>> measured_result("CCS(=O)(=O)Nc1cccc([C@@H](N)C(=O)N[C@@H]2C(=O)N3C(C(=O)O)=C(C(F)(F)F)CC[C@H]23)c1")
0.25
>>> measured_result("CS(=O)(=O)Nc1cccc([C@@H](N)C(=O)N[C@@H]2C(=O)N3C(C(=O)O)=C(C(F)(F)F)CC[C@H]23)c1")
0.5
>>> measured_result("N[C@@H](C(=O)N[C@@H]1C(=O)N2C(C(=O)O)=C(C(F)(F)F)CC[C@H]12)c1ccc(O)cc1")
0.06
>>> measured_result("Cc1cccc([C@@H](N)C(=O)N[C@@H]2C(=O)N3C(C(=O)O)=C(C(F)(F)F)CC[C@H]23)c1")
1

---

Test system: Citrobacter
test protocol: Compound was evaluated for inhibitory activity against CF17 Citrobacter
Type: functional
MIC: recorded values
value kind: MIC (µM)

>>> measured_result("CCS(=O)(=O)Nc1cccc([C@@H](N)C(=O)N[C@@H]2C(=O)N3C(C(=O)O)=C(C(F)(F)F)CC[C@H]23)c1")
32
>>> measured_result("N[C@@H](C(=O)N[C@@H]1C(=O)N2C(C(=O)O)=C(C(F)(F)F)CC[C@H]12)c1ccccc1")
4
>>> measured_result("N[C@@H](C(=O)N[C@@H]1C(=O)N2C(C(=O)O)=C(C(F)(F)F)CC[C@H]12)c1cccc(C(F)(F)F)c1")
128
>>> measured_result("N[C@@H](C(=O)N[C@@H]1C(=O)N2C(C(=O)O)=C(C(F)(F)F)CC[C@H]12)c1ccc(O)c(Cl)c1")
4
